- test method notes: Toxicity liver stage against HepG2, at 10uM
- Type: cell-based
- Design: test concentration 10 uM, cell line HepG2-A16-CD81EGFP
- setup conditions: human, HepG2-A16-CD81EGFP cells; read-out: INHIBITION
// values below are reported cytotoxicity at 10 µM
readout label: cytotoxicity at 10 µM (%)

In [3]: df
Out[3]:
                                    compound  measured_result
 0  CC(C)(O)CN1CCN(C(=O)c2cccn2Cc2cccnc2)CC1           -0.787
 1       CN(Cc1ccoc1)C(=O)Cn1ncc(N(C)C)cc1=O             7.68
 2  CCC1=N[C@@]2(CC[C@@H]3CN(C(=O)NCc4ccccc4C)C[C@@H]32)C(=O)N1            -71.1
 3  CCCC(C(=O)NC1CCN(S(C)(=O)=O)CC1)n1cccc1 (stereo unspecified)            -3.71
 4  CCC1c2ccsc2CCN1C(=O)NCc1cc[nH]n1 (stereo unspecified)            -8.88
 5         CN(C)Cc1cncc2c1CCN(Cc1cnn(C)c1)C2             4.13
 6  O=C(NCC1CCN(c2ccncc2)CC1)C(O)c1ccccc1 (stereo unspecified)             8.15
 7  Cc1ccc(C(O)CN2CCN(Cc3nccn3C)CC2)cc1C (stereo unspecified)              -37
 8  COc1cccc(CCC(=O)N2CCN(Cc3noc(C)n3)CC2)c1             3.09
 9  Cc1cc2c(=O)n3c(nc2s1)CCN(C(=O)c1cn(C)nc1C)CC3            -22.6
10        CC(C)(C)CC(=O)N1C[C@H]2CCN[C@H]2C1             4.19
11  O[C@@H]1CN(c2nc3ccccc3o2)CC[C@H]1c1ccc2c(c1)OCO2             5.36
12  CCCOc1cccc(C(=O)N2CCCC(n3cncn3)C2)c1 (stereo unspecified)            -4.39
13       c1cc(-c2ccc3c(c2)C2(CCNCC2)CC3)ccn1             56.9
14     Cc1ccc(CN2CCc3ncnc(-c4ccncc4)c3CC2)o1            -1.19
15      COCCN(C)Cc1cn(C)nc1-c1ccc2c(c1)OCCO2            -0.65
16  Cc1cccc(-c2cc(-c3c(C)nn(CCO)c3C)c(C#N)c(N)n2)c1             20.2
17     CCN1CCN(C)C(=O)C12CCN(Cc1csc(C)n1)CC2             1.53
18     O=C(NCCNc1ncccn1)c1ccc(OCc2ccccc2)nc1               17
19        Cc1noc(COCC(=O)Nc2ccc(Br)c(C)n2)n1             6.19
20  CC(NCc1ccncc1)c1ccc(N2CCN(C)CC2)c(F)c1 (stereo unspecified)             27.8
21    O=C(CCc1ccco1)NS(=O)(=O)N1CCOc2ccccc21             6.07
22   Cc1nn(Cn2ccc(C(=O)N3CCCCCC3)n2)c(C)c1Cl            0.781
23  CN1CCN(CC2CC2)C(=O)c2cnc(N3CC[C@@H](O)C3)nc21             2.19
24               CS(=O)(=O)NCc1ccc2c(c1)CCC2             -1.9
25       CCCC(=O)N1CCC(c2cc3cccnc3c(O)n2)CC1            -3.63
26  CCOCC1CN(C(=O)c2ccco2)Cc2nn(C)cc21 (stereo unspecified)             3.86
27  COc1ccc(OCc2nc(C(=O)N3CC[C@H](O)[C@@H](O)C3)co2)cc1            -5.42
28  Cc1nn(C)c(N2CCOCC2)c1CNCC1CCCN1C (stereo unspecified)            -1.96
29  CCOc1ccc(Br)cc1C1CCCN1 (stereo unspecified)             5.01
30  O=C(NCc1ccccc1)N1CCC2(CC(=O)N(c3ccccc3)C2)C1 (stereo unspecified)             2.61
31      COc1c(CNCc2ccc(N3CCOCC3)cc2)c(C)nn1C              2.1
32  COc1ccc(C(=O)N(C)Cc2ncc(C)c(OC)c2C)c(OC)c1            -4.28
33  Cc1ccc(F)c2c1N(C(=O)c1cn(CC(=O)N(C)C)nn1)CCC2            -9.17
34       Cc1ccccc1CN1CCN(C(=O)CN2CCOC2=O)CC1            -8.03
35   CN(CCc1ccccn1)C(=O)c1cnn(-c2ccccc2F)c1N            -4.85
